Entry source: the supplement of paper PMC9938120

- Test system: FMOC22 (patient-derived mucinous ovarian cancer cells)
- Procedure Text: drug sensitivity score (DSS3, normalised partial AUC of % inhibition dose-response) (DSS (score)); higher = more sensitive (stronger inhibition of viability); extreme values may be limits of the assay
- Run Conditions: 72 h; library: FO5A; assay format: 2D, 384-well, CellTiter-Glo
Assign class by drug sensitivity score: not lower than 0.4 means satisfied; lower than 0.4 means not satisfied.

Study these solved cases before continuing.
Compound	Class Label
NC(=O)c1cccc2cn(-c3ccc([C@@H]4CCCNC4)cc3)nc12	satisfied
O=C(Nc1cc(Oc2cc(F)c(NC(=O)C3(C(=O)Nc4ccc(F)cc4)CC3)cc2F)ccn1)C1CC1	satisfied
CCc1nc(C(N)=O)c(Nc2ccc(N3CCC(N4CCN(C)CC4)CC3)c(OC)c2)nc1NC1CCOCC1	not satisfied
O=C(CCCCCCNC(=O)c1cnc(N(c2ccccc2)c2ccccc2)nc1)NO	satisfied
CNC(=O)c1ccccc1Nc1nc(Nc2ccc3c(c2OC)CCC[C@H](N2CCN(CCO)CC2)C3)ncc1Cl	satisfied
C[C@H]1CN(C2COC2)CCN1c1ccc(Nc2cc(-c3ccnc(N4CCn5c(cc6c5CC(C)(C)C6)C4=O)c3CO)cn(C)c2=O)nc1	not satisfied

Entry `COc1cc(C)c(/C=C/C(C)=C/C=C/C(C)=C/C(=O)O)c(C)c1C` : is its drug sensitivity score no less than 0.4?
not satisfied

Is it the case that `CS(=O)(=O)c1ccc(C(=O)Nc2ccc(Cl)c(-c3ccccn3)c2)c(Cl)c1` has drug sensitivity score reaching or exceeding 0.4?
not satisfied

Tell me whether drug sensitivity score is at least 0.4 here: NC(=O)NO [Hydroxyurea]
satisfied

Check this compound for drug sensitivity score at or above 0.4: `N#CC[C@H](C1CCCC1)n1cc(-c2ncnc3[nH]ccc23)cn1`
not satisfied

Textbook exercise: given the entry `COCCOc1cnc2ccn([C@H](C)c3nnc4c(F)cc(-c5cnn(C)c5)cn34)c(=O)c2c1` , state whether its drug sensitivity score is greater than or equal to 0.4.
not satisfied

Answer whether drug sensitivity score of `COc1cc2c(Oc3ccc4[nH]c(C)cc4c3F)ncnc2cc1OCCCN1CCCC1` is greater than or equal to 0.4.
not satisfied

Hi team, for `CN[C@@H](C)C(=O)N[C@H]1CN(C(=O)CC(C)C)CC[C@H]2CC[C@@H](C(=O)NC(c3ccccc3)c3ccccc3)N2C1=O` , is the recorded drug sensitivity score at or above 0.4?
not satisfied

Given `CC(C)n1cnc2c(NCCc3ccc(O)cc3)nc(-c3csc4ccccc34)nc21` , state whether its drug sensitivity score is at least 0.4.
satisfied

Could you verify whether the entry `CC[C@H](NC(=O)[C@H](C)NC)C(=O)N1C[C@@H](O)C[C@H]1Cc1c(-c2[nH]c3cc(F)ccc3c2C[C@@H]2C[C@H](O)CN2C(=O)[C@H](CC)NC(=O)[C@H](C)NC)[nH]c2cc(F)ccc12` shows drug sensitivity score of no less than 0.4?
not satisfied

Exam item: decide whether the reported drug sensitivity score for `COc1cc2c(cc1-c1c(C)noc1C)ncc1[nH]c(=O)n([C@H](C)c3ccccn3)c12` is at least 0.4.
satisfied

drug sensitivity score >= 0.4 for `Cn1c(=O)n(-c2ccc(C(C)(C)C#N)cc2)c2c3cc(-c4cnc5ccccc5c4)ccc3ncc21` ?
satisfied

Hi team, for `O=c1sn(-c2cccc3ccccc23)c(=O)n1Cc1ccccc1` , is the recorded drug sensitivity score at or above 0.4?
not satisfied

Decide: drug sensitivity score of `CCn1c(-c2nonc2N)nc2c(C#CC(C)(C)O)ncc(OC[C@H]3CCCNC3)c21` >= 0.4?
satisfied

For this compound, is measured drug sensitivity score 0.4 or higher? `CNC(=O)c1ccc(C)c(-n2c(C)cc(OCc3ccc(F)cc3F)c(Br)c2=O)c1`
not satisfied

Would you say `COc1cc2c(Oc3ccc(NC(=O)C4(C(=O)Nc5ccc(F)cc5)CC4)cc3F)ccnc2cc1OCCCN1CCOCC1` shows drug sensitivity score at minimum 0.4?
satisfied

# check: drug sensitivity score of `COc1cc(Nc2ncc(F)c(Nc3ccc4c(n3)NC(=O)C(C)(C)O4)n2)cc(OC)c1OC` is greater than or equal to 0.4
not satisfied

Tell me whether drug sensitivity score is at least 0.4 here: `CNc1ncc2cc(-c3cc(NC(=O)NCCC(C)(C)C)c(F)cc3C)c(C)nc2n1`
satisfied

Is drug sensitivity score at least 0.4? Consider `COc1cc(OC)cc(N(CCNC(C)C)c2ccc3ncc(-c4cnn(C)c4)nc3c2)c1`
not satisfied

# bool: drug sensitivity score of `CCN(c1cc(-c2ccc(CN3CCOCC3)cc2)cc(C(=O)NCc2c(C)cc(C)[nH]c2=O)c1C)C1CCOCC1` >= 0.4
not satisfied

State whether the measured drug sensitivity score reaches 0.4, counting equality as reaching it, for COc1ccc(C[C@H](NC(=O)[C@H](C)NC(=O)CN2CCOCC2)C(=O)N[C@@H](Cc2ccccc2)C(=O)C2(C)CO2)cc1 (stereo in doubt)
satisfied

Does drug sensitivity score meet or surpass 0.4 for `CN1CCC(COc2cnc(-c3cccc(Cn4nc(-c5cccc(C#N)c5)ccc4=O)c3)nc2)CC1` ?
not satisfied

Quick check, drug sensitivity score >= 0.4? `C[C@@H](Oc1ccc2[nH]nc(/C=C/c3cnn(CCO)c3)c2c1)c1c(Cl)cncc1Cl`
satisfied

Textbook exercise: given the entry `CC[C@H](C)C(=O)O[C@H]1C[C@H](O)C=C2C=C[C@H](C)[C@H](CC[C@@H](O)C[C@@H](O)CC(=O)O)[C@H]21` , state whether its drug sensitivity score is greater than or equal to 0.4.
not satisfied

Please tell me: is the compound `CNC(=O)c1ccc(-c2cnc3ncc(Cc4ccc5ncccc5c4)n3n2)cc1F` at or over 0.4 in terms of drug sensitivity score?
not satisfied
